biological target: Bile acid receptor (Homo sapiens); assay: ATG_IR1_CIS: Attagene CIS-FACTORIAL HepG2 Assay for human Nuclear Receptor Subfamily 1 Group H Member 4 (NR1H4), IR1 submotif (AID 2282946); conditions: IR1 reporter transcription, actives raise or lower the signal
Activity calls are given as the source filed them. Rule for the calls: active = hit-call score of the fitted dose curve at least 0.9, where 1 is the maximum; inactive = score below 0.9.
Property Name: AC50

Recorded AC50, per entry:
- Compound: "Cc1oc(-c2ccccc2)nc1CCOc1ccc(C[C@H](Nc2ccccc2C(=O)c2ccccc2)C(=O)O)cc1"
  AC50: "11 µM (active)"
- Compound: "CN1CCN(c2ccccc2/C=C2\\SCCN(c3ccc(Cl)c(Cl)c3)C2=O)CC1"
  AC50: "inactive"
- Compound: "CCCOc1sc(C(=O)N2CCC(c3cc(CN)ccc3F)CC2)c(C)c1Br"
  AC50: "1.12 µM (active)"
- Compound: "CCCCC[C@H](O)CC(=O)CCc1ccc(O)c(OC)c1"
  AC50: "149 µM (active)"
- Compound: "CCCCCCCCCCCCN1CCCC1=O"
  AC50: "inactive"
- Compound: "FC(F)(I)C(F)(F)C(F)(F)C(F)(F)C(F)(F)C(F)(F)I"
  AC50: "inactive"
- Compound: "NCC(F)(F)C(F)(F)C(F)(F)C(F)(F)C(F)(F)C(F)(F)C(F)(F)F"
  AC50: "inactive"
- Compound: "c1ccc2c(c1)ccc1ccccc12"
  AC50: "inactive"

### Prompt Tell me measured AC50 for CC(C)(C)c1cccc(C(C)(C)C)c1O please.
### Response inactive

### Prompt Tell me measured AC50 for CN(C)C=O please.
### Response inactive

### Prompt Tell me measured AC50 for NC(=O)N(O)[C@@H]1C=C[C@H](Oc2cccc(Oc3ccc(F)cc3)c2)C1 please.
### Response inactive

### Prompt Tell me measured AC50 for C=C(C)C(=O)OCCC(F)(F)C(F)(F)C(F)(F)C(F)(F)C(F)(F)C(F)(F)F please.
### Response inactive

### Prompt Tell me measured AC50 for CC(C)(C)CC(C)(C)c1ccc(O)c(-n2nc3ccccc3n2)c1 please.
### Response inactive

### Prompt Tell me measured AC50 for CCCCCCC(=O)O please.
### Response inactive

### Prompt Tell me measured AC50 for COCC(C)OCC(C)O (stereo unspecified) please.
### Response inactive

### Prompt Tell me measured AC50 for Nc1cccc2c(N)cccc12 please.
### Response inactive

### Prompt Tell me measured AC50 for Cc1cc(CCN2CCN(c3nsc4ccccc34)CC2)cc2c1NC(=O)CC2(C)C please.
### Response inactive

### Prompt Tell me measured AC50 for Oc1cccc(O)c1 please.
### Response inactive

### Prompt Tell me measured AC50 for CC(O)CO (stereo unspecified) please.
### Response inactive

### Prompt Tell me measured AC50 for CC(C)(C)c1ccc(O)c(C(C)(C)C)c1 please.
### Response 5.79 µM (active)

### Prompt Tell me measured AC50 for O=C1OC2(c3ccccc31)c1cc(Br)c(O)c(Br)c1Oc1c2cc(Br)c(O)c1Br please.
### Response inactive

### Prompt Tell me measured AC50 for CCCCCCCCCCCCCCCS(=O)(=O)Oc1ccccc1 please.
### Response inactive

### Prompt Tell me measured AC50 for COc1cc(CCC(=O)CC(=O)CCc2ccc(O)c(OC)c2)ccc1O please.
### Response inactive

### Prompt Tell me measured AC50 for COc1ccc([N+](=O)[O-])cc1N please.
### Response inactive

### Prompt Tell me measured AC50 for CCCCC(CC)COC(=O)CCCCC(=O)OCC(CC)CCCC (stereo unspecified) please.
### Response inactive

### Prompt Tell me measured AC50 for c1ccc2c(c1)Cc1ccccc1-2 please.
### Response inactive

meta.source: PubChem BioAssay (EPA / NIEHS)
